- METHOD: chemical recovery from spiked human plasma; higher = better extraction
- SETTINGS: pooled human plasma; extraction method: solvent precipitation (ACN + hexane)
RECORDED METRIC: chemical recovery (%)
Use % as the unit, but write only the number.

Q: Looking for the measured chemical recovery of CC(C)NCC(O)c1ccc(NS(C)(=O)=O)cc1 (stereo not given) , can you help?
Result: 75

Q: Please report the recorded chemical recovery for CN/C(=N/CC1CCOC1)N[N+](=O)[O-] (stereo not given) .
Result: 76.3

Q: For the molecule O=P1(NCCCl)OCCCN1CCCl (stereo not given) [Ifosfamide] , what chemical recovery is on record?
Result: 71.7

Q: chemical recovery for "C[C@@H](O)CCCCn1c(=O)c2c(ncn2C)n(C)c1=O" ?
Result: 76.1

Q: Any idea what its chemical recovery is? The molecule is CCOC(=O)C1=C(C)NC(C)=C(C(=O)OC)C1c1cccc([N+](=O)[O-])c1 (stereo not given)
Result: 52.1

====

- METHOD: chemical recovery by SPE of plasma after PDMS sampling; higher = better extraction
- SETTINGS: pooled human plasma; extraction method: HLB SPE of plasma after PES; equilibration time (d): 1
The threshold is inclusive: chemical recovery by SPE of plasma of exactly 10% counts as y; values below receive n.

Q: Could you verify whether the entry "COCCN(C(=O)CCl)c1c(C)cccc1C" shows chemical recovery by SPE of plasma of no less than 10%?
Result: n

Q: Is chemical recovery by SPE of plasma for "N#Cc1cc(Br)c(O)c(Br)c1" at or above 10%?
Result: y

Q: Determine whether measured chemical recovery by SPE of plasma meets or exceeds 10% for "CN/C(=N\[N+](=O)[O-])NCc1cnc(Cl)s1"
Result: y

Q: Test whether the molecule CC(C)(C)C(=O)C(Oc1ccc(Cl)cc1)n1ccnc1 (stereo not drawn) records chemical recovery by SPE of plasma of 10% or higher.
Result: n

Q: Assess whether reported chemical recovery by SPE of plasma for "CC(C)c1ccc(NC(=O)N(C)C)cc1" sits at 10% or higher.
Result: n

Q: Reported chemical recovery by SPE of plasma at or above 10%? "NC(=O)Nc1ccc(Cl)c(Cl)c1"
Result: y

Q: In plain terms: is recorded chemical recovery by SPE of plasma at least 10% for "Cn1ccnc1S" ?
Result: n

Q: Exam item: decide whether the reported chemical recovery by SPE of plasma for "CN1C(=O)CC[C@H]1c1cccnc1" is at least 10%.
Result: n

Q: Determine whether measured chemical recovery by SPE of plasma meets or exceeds 10% for "CC(C)(Oc1ccc(Cl)cc1)C(=O)O"
Result: y

Q: chemical recovery by SPE of plasma >= 10% for "C=Cc1c2ccccc2cc2ccccc12" ?
Result: n

Q: Check the entry CC[C@H]1CCC[C@H](O[C@H]2CC[C@H](N(C)C)[C@@H](C)O2)[C@@H](C)C(=O)C2=C[C@@H]3[C@@H](C=C[C@@H]4C[C@@H](O[C@@H]5O[C@@H](C)[C@H](OC)[C@@H](OC)[C@H]5OC)C[C@@H]34)[C@@H]2CC(=O)O1 [Spinosyn A] : does chemical recovery by SPE of plasma equal or exceed 10%?
Result: n

Q: Evaluate OC(Cc1ccccc1Cl)(Cn1cncn1)C1(Cl)CC1 (stereo not drawn) : chemical recovery by SPE of plasma at minimum 10%?
Result: n

Q: Check this molecule for chemical recovery by SPE of plasma at or above 10%: "Oc1c(Br)cc(Cl)cc1Cc1cc(Cl)cc(Br)c1O"
Result: y

Q: Given CCCOP(=O)(OCCC)OCCC [Tripropyl phosphate] , state whether its chemical recovery by SPE of plasma is at least 10%.
Result: n

Q: Threshold query (chemical recovery by SPE of plasma >= 10%) on "CC[C@H](C)[C@H]1O[C@]2(C=C[C@@H]1C)C[C@@H]1C[C@@H](C/C=C(\C)[C@@H](O[C@H]3C[C@H](OC)[C@@H](O[C@H]4C[C@H](OC)[C@@H](NC)[C@H](C)O4)[C@H](C)O3)[C@@H](C)/C=C/C=C3\CO[C@@H]4[C@H](O)C(C)=C[C@@H](C(=O)O1)[C@]34O)O2"
Result: n

Q: Check the entry "Nc1ccccc1Br" : does chemical recovery by SPE of plasma equal or exceed 10%?
Result: n

Q: Is chemical recovery by SPE of plasma at least 10%? Consider CC(C)NCC(O)COc1cccc2ccccc12 (stereo not drawn)
Result: n

Q: Does chemical recovery by SPE of plasma meet or surpass 10% for CC(C)(C)c1ccc(S(N)(=O)=O)cc1 [4-tert-Butylbenzenesulfonamide] ?
Result: y
